Assay: Reversal of P-glycoprotein mediated multidrug resistance in human MCF-7T cells assessed as reversal of resistance to paclitaxel-induced cytotoxicity by measuring paclitaxel IC50 at 5 uM measured after 72 hrs by MTT assay
measure: pIC50
Just so you know, pIC50 here is -log10 of the concentration in molar units; reply with that number alone.

These solved cases illustrate the format of a correct answer.
structure_smiles: CC1(C)CC[C@]2(C(=O)OCc3ccccc3)CC[C@]3(C)C(=CC[C@@H]4[C@@]5(C)Cc6nccnc6[C@@](C)(CO)[C@@H]5CC[C@]43C)[C@@H]2C1
pIC50: 7.89

structure_smiles: CC1(C)CC[C@]2(C(=O)OCc3ccccc3)CC[C@]3(C)C(=CC[C@@H]4[C@@]5(C)Cc6nccnc6[C@@](C)(COC(=O)CCC(=O)OCCOCCOCCOCCO)[C@@H]5CC[C@]43C)[C@@H]2C1
pIC50: 8.27

Now look at this entry.
The reported pIC50 of the compound COc1cc2c(cc1OC)CN(CCc1ccc(NC(=O)c3cc(OC)c(OC)cc3NC(=O)c3cnc4ccccc4c3)cc1)CC2 was 8.48

---

Assay: Reversal of P-glycoprotein mediated multidrug resistance in human MCF-7T cells assessed as reversal of resistance to vincristine-induced cytotoxicity by measuring vincristine IC50 at 10 uM measured after 72 hrs by MTT assay
measure: pIC50
Just so you know, pIC50 here is -log10 of the concentration in molar units; reply with that number alone.

These solved cases illustrate the format of a correct answer.
structure_smiles: COc1cc2c(cc1OC)CN(CCc1ccc(NC(=O)c3cc(OC)c(OC)cc3NC(=O)c3cnc4ccccc4c3)cc1)CC2
pIC50: 9.66
--
structure_smiles: CC1(C)CC[C@]2(C(=O)OCc3ccccc3)CC[C@]3(C)C(=CC[C@@H]4[C@@]5(C)Cc6nccnc6[C@@](C)(COC(=O)CCC(=O)OCCOCCOCCOCCO)[C@@H]5CC[C@]43C)[C@@H]2C1
pIC50: 10.40

Now look at this entry.
The reported pIC50 of the compound CC1(C)CC[C@]2(C(=O)OCc3ccccc3)CC[C@]3(C)C(=CC[C@@H]4[C@@]5(C)Cc6nccnc6[C@@](C)(CO)[C@@H]5CC[C@]43C)[C@@H]2C1 was 10.52

---

Test: Reversal of P-glycoprotein mediated multidrug resistance in human MCF-7T cells assessed as reversal of resistance to paclitaxel-induced cytotoxicity by measuring paclitaxel IC50 at 10 uM measured after 72 hrs by MTT assay
Some compounds, each annotated with its measured pIC50.
Just so you know, pIC50 here is -log10 of the concentration in molar units; reply with that number alone.

These solved cases illustrate the format of a correct answer.
structure_smiles: COc1cc2c(cc1OC)CN(CCc1ccc(NC(=O)c3cc(OC)c(OC)cc3NC(=O)c3cnc4ccccc4c3)cc1)CC2
pIC50: 9.59
//
structure_smiles: CC1(C)CC[C@]2(C(=O)OCc3ccccc3)CC[C@]3(C)C(=CC[C@@H]4[C@@]5(C)Cc6nccnc6[C@@](C)(CO)[C@@H]5CC[C@]43C)[C@@H]2C1
pIC50: 8.82

Now look at this entry.
The reported pIC50 of the compound CC1(C)CC[C@]2(C(=O)OCc3ccccc3)CC[C@]3(C)C(=CC[C@@H]4[C@@]5(C)Cc6nccnc6[C@@](C)(COC(=O)CCC(=O)OCCOCCOCCOCCO)[C@@H]5CC[C@]43C)[C@@H]2C1 was 9.05

---

Assay: Reversal of P-glycoprotein mediated multidrug resistance in human KBV cells assessed as reversal of resistance to paclitaxel-induced cytotoxicity by measuring paclitaxel IC50 at 10 uM measured after 72 hrs by MTT assay
measure: pIC50
Just so you know, pIC50 here is -log10 of the concentration in molar units; reply with that number alone.

structure_smiles: CC1(C)CC[C@]2(C(=O)OCc3ccccc3)CC[C@]3(C)C(=CC[C@@H]4[C@@]5(C)Cc6nccnc6[C@@](C)(COC(=O)CCC(=O)OCCOCCOCCOCCO)[C@@H]5CC[C@]43C)[C@@H]2C1
pIC50: 8.34
--
structure_smiles: CC1(C)CC[C@]2(C(=O)OCc3ccccc3)CC[C@]3(C)C(=CC[C@@H]4[C@@]5(C)Cc6nccnc6[C@@](C)(CO)[C@@H]5CC[C@]43C)[C@@H]2C1
pIC50: 7.80

The reported pIC50 of the compound COc1cc2c(cc1OC)CN(CCc1ccc(NC(=O)c3cc(OC)c(OC)cc3NC(=O)c3cnc4ccccc4c3)cc1)CC2 was 8.35

---

Assay: Reversal of P-glycoprotein mediated multidrug resistance in human KBV cells assessed as reversal of resistance to paclitaxel-induced cytotoxicity by measuring paclitaxel IC50 at 5 uM measured after 72 hrs by MTT assay
measure: IC50 (nM)
Hi! Could you send only the number? It should be in nM, unit omitted.

These solved cases illustrate the format of a correct answer.
structure_smiles: CC1(C)CC[C@]2(C(=O)OCc3ccccc3)CC[C@]3(C)C(=CC[C@@H]4[C@@]5(C)Cc6nccnc6[C@@](C)(COC(=O)CCC(=O)OCCOCCOCCOCCO)[C@@H]5CC[C@]43C)[C@@H]2C1
value_unit: nM
IC50: 22

structure_smiles: COc1cc2c(cc1OC)CN(CCc1ccc(NC(=O)c3cc(OC)c(OC)cc3NC(=O)c3cnc4ccccc4c3)cc1)CC2
value_unit: nM
IC50: 7.6

Now look at this entry.
The reported IC50 of the molecule CC1(C)CC[C@]2(C(=O)OCc3ccccc3)CC[C@]3(C)C(=CC[C@@H]4[C@@]5(C)Cc6nccnc6[C@@](C)(CO)[C@@H]5CC[C@]43C)[C@@H]2C1 was 59

Where do these numbers come from? They come from BindingDB's records for doi:10.1016/j.ejmech.2020.113107.
